Biological target: T1, Mouse soluble TWEAK (untagged, Example 5) (mouse, UniProt O54907 105-249, limits assumed)
T1 construct: also called Murine TWEAK
T1 sequence: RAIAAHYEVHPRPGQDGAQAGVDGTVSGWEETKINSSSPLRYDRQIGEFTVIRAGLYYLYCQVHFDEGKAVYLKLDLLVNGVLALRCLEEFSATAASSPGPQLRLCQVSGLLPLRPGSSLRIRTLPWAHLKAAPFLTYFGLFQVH
Assay: receptor interaction ELISA: mouse soluble TWEAK preincubated with antibody, then on coated mouse Fn14:Fc (competitor m22)
Rule: measured IC50 below 7 ng/mL gets 1.0; anything equal to or greater than 7 ng/mL gets 0.0.

BINDER: Humanized <TWEAK> 305- antibody 28 (antibody, V domains shown) VH: EVQLLESGGGLVQPGGSLTLSCAASGFDFSTYYMSWVRQAPGKGLEWVSTVYVRQGTTYYASWLNGRFTISRDNSKNTLYLQMNSLRAEDTAVYYCAKGGYNYDDAFVIWGQGTLVTVSS VL: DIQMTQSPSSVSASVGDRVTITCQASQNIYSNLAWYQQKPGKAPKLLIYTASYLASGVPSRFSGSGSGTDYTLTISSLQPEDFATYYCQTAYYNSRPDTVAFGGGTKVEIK
GROUP: 1.0
--
BINDER: Humanized <TWEAK> 305- antibody 27 (antibody, V domains shown) VH: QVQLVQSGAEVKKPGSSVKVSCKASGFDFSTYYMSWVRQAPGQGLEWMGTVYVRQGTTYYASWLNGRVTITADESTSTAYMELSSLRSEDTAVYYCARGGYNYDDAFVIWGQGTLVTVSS VL: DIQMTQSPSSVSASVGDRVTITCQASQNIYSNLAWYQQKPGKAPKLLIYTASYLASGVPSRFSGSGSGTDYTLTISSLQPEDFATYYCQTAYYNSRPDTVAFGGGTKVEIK
GROUP: 0.0
--
BINDER: Humanized <TWEAK> 305- antibody 33 (antibody, V domains shown) VH: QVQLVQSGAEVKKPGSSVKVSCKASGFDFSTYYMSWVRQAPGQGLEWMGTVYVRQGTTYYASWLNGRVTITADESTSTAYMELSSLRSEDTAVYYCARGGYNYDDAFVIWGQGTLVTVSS VL: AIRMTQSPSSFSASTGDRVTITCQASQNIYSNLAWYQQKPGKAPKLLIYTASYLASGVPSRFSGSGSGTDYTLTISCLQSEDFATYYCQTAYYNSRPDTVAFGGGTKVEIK
GROUP: 1.0
--
BINDER: Humanized <TWEAK> 305- antibody 29 (antibody, V domains shown) VH: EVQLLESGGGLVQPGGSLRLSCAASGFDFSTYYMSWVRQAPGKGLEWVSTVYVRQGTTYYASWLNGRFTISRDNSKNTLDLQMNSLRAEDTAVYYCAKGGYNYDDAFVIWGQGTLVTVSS VL: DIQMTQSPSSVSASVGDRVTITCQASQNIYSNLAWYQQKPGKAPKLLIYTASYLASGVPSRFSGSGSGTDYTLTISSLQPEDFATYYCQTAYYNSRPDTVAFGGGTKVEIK
GROUP: 1.0
